Assay: AUC in rat at 10 umol/kg, po
Type: ADME, organism-based
Settings: plasma
Metric: AUC (µM·h)

- Record smiles: "O=C1NCC2(CCNCC2)c2[nH]c(-c3ccnc(-c4ccc5c(c4)OCO5)n3)cc21"
  Measured value: 0.016

###

Experiment: Kinetic solubility of the compound at pH 7.4
Format: physicochemical
Conditions: buffer
Each entry below carries its reported solubility kinetic.

- Record smiles: "O=C1NCC2(CCNCC2)c2[nH]c(-c3ccnc(-c4cnc5ccccc5c4)n3)cc21"
  solubility kinetic (µg/mL): 23
- Record smiles: "O=C1NCC2(CCNCC2)c2[nH]c(-c3ccnc(-c4ccc5c(c4)OCO5)n3)cc21"
  solubility kinetic (µg/mL): 37
- Record smiles: "NCCn1nc(-c2ccnc(-c3cnc4ccccc4c3)c2)cc1C(=O)O"
  solubility kinetic (µg/mL): 33

###

Experiment: Plasma protein binding in plasma
Assay type: ADME, cell-free
Conditions: read-out: PPB (converted)
Measured fraction unbound, listed per entry.

- Record smiles: "O=C1NCC2(CCNCC2)c2[nH]c(-c3ccnc(-c4ccc5c(c4)OCO5)n3)cc21"
  fraction unbound: 0.03
- Record smiles: "O=C1NCCc2[nH]c(-c3ccnc(-c4cnc5ccccc5c4)c3)cc21"
  fraction unbound: 0.003

###

// reported half-life for each item listed
Assay: Half life in rat liver microsomes
Format: ADME, Microsome
Metric: half-life (min)

- Record smiles: "O=C1NCCc2[nH]c(-c3ccnc(-c4cnc5ccccc5c4)c3)cc21"
  Metric: "half-life"
  Value qualifier: "="
  Measured value: 40
- Record smiles: "O=C1NCC2(CCNCC2)c2[nH]c(-c3ccnc(-c4ccc5c(c4)OCO5)n3)cc21"
  Metric: "half-life"
  Value qualifier: ">"
  Measured value: 120

###

Target: MAP kinase-activated protein kinase 2 (Homo sapiens)
Sequence (P49137 whole entry): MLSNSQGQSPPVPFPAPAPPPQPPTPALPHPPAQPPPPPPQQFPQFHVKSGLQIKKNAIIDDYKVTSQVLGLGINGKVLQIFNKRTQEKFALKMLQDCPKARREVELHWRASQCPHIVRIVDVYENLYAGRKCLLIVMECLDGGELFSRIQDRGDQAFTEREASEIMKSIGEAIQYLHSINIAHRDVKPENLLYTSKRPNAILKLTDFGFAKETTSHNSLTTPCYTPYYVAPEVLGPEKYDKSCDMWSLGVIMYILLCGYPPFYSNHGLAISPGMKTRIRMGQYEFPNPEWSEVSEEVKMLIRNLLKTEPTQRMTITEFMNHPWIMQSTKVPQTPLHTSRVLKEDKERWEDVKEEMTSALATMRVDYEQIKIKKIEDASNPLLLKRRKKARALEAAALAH
Assay: Inhibition of MK2 pretreated for 30 mins before substrate addition measured after 2 hrs by IMAP assay
pEC50: −log10 of the molar value.

- Compound: "NCC1CNC(=O)c2cc(-c3ccnc(-c4cnc5ccccc5c4)c3)nn21 (centres undefined)"
  pEC50: 6.82
- Compound: "O=C1NCC2(CCCC2)c2[nH]c(-c3ccnc(-c4cnc5ccccc5c4)n3)cc21"
  pEC50: 6.63
- Compound: "NCCn1nc(-c2ccnc(-c3cnc4ccccc4c3)c2)cc1C(=O)O"
  pEC50: 7.55
- Compound: "O=C1NCC2(CCNCC2)c2[nH]c(-c3ccnc(-c4cnc5ccccc5c4)n3)cc21"
  pEC50: 8.22

###

Experiment: AUC in rat at 4 umol/kg, iv
Type: ADME, organism-based
Conditions: plasma

- Record smiles: "O=C1NCC2(CCNCC2)c2[nH]c(-c3ccnc(-c4ccc5c(c4)OCO5)n3)cc21"
  AUC: "1.26 µM·h"
